Examples of sequences with documented apparent KD of K4 kissing-loop reporter follow.
system: K4 kissing-loop RNA reporter; assay: apparent KD of K4 kissing-loop reporter; higher = weaker reporter binding; settings: Eterna round: R107; input ligand: tryptophan 2.4 mM;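 note: bound reporter read as fluorescence of individual clusters on recovered sequencing chips by microscopy, with normalized cluster intensities fitted with a binding model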
# value in nM; strip the unit string

Please review the entries below; each comes with its answer.
sequence_string: AGUGUUAGGUUAGAUACCAGCCGUCUGUGGAUAAUCCACAGACCGCCAGUGAUGUUGGCAGGCCCUUGGCAGCUAACAGGACAGA [Riedingeus]
apparent KD of K4 kissing-loop reporter (nM): 208

sequence_string: UUUUUUUACUGAAGGAGCGGCAAUUGAUACGUAGAUAUAGUGAUGUUAUAUAAGAUAGAGAGCCAGGUAGGUCGCAGAUUUUUUC [ExArgB.X]
apparent KD of K4 kissing-loop reporter (nM): 129

Ask: Recorded apparent KD of K4 kissing-loop reporter of AAUAAUGGAGUGAUGUUCCAGUAAUGGGAUACCAGACAUGAAAAUGUCCCUUGGCAGCUCAAAGGUCUAGUGAUGUUAUAAAGAA [KL-SSTheo-A6] , please.
Result: 377

From: the supplement of paper PMC9170038
